Recorded MED values for a group of compounds are listed next.
- Tested on: Echinochloa oryzicola
- ASSAY_SUMMARY: Herbicide activity against Echinochloa oryzicola under greenhouse condition compound treated at 2 leaf-stage measured after 14 to 20 days
- Type: functional

Lab entry: Echinochloa oryzicola assay, compound "CC1=C(c2ccc(-c3ccccc3)cc2)C(=O)N(C(C)(C)c2nc3ccccc3s2)C1" , MED = <5 g/acre

Lab entry: Echinochloa oryzicola assay, compound "CC1=C(c2ccccc2)C(=O)N(C(C)(C)c2nc3cc(C(F)(F)F)ccc3s2)C1" , MED = <5 g/acre

Lab entry: Echinochloa oryzicola assay, compound "CC1=C(c2ccccc2)C(=O)N(C(C)(C)c2nc3cc(C)ccc3s2)C1" , MED = <5 g/acre

Lab entry: Echinochloa oryzicola assay, compound "CC(=O)OC1=C(c2ccccc2)C(=O)N(C(C)(C)c2nc3ccccc3s2)C1" , MED = <5 g/acre

Lab entry: Echinochloa oryzicola assay, compound "CC1=C(c2cccc(F)c2)C(=O)N(C(C)(C)c2nc3ccccc3s2)C1" , MED = 5 g/acre

***
Lab entry: Echinochloa oryzicola assay, compound "CC1=C(c2ccccc2F)C(=O)N(C(C)(C)c2nc3ccccc3s2)C1" , MED = 2.5 g/acre

Lab entry: Echinochloa oryzicola assay, compound "CCC1=C(c2ccccc2)C(=O)N(C(C)(C)c2nc3ccccc3s2)C1" , MED = 5 g/acre

----------
Recorded log10 MTD values for a group of compounds are listed next.
- Test system: Oryza sativa
- ASSAY_SUMMARY: Phytotoxicity against two-leaf stage Oryza sativa cv. Nihonbare (rice) planted 3 cm depth measured after […]
- Assay type: organism-based
- MEASUREMENT_SETUP: in vivo
# log10 transformed; quantity=MTD; unit=g/acre

Solved cases (2 shown):
So for "CC1=C(c2ccccc2)C(=O)N(C(C)(C)c2csc(-c3ccccc3)n2)C1" , the logged log10 MTD turned out to be 1.60

So for "CC1=C(c2ccccc2)C(=O)N(C(C)(C)c2nc3cc(Br)ccc3s2)C1" , the logged log10 MTD turned out to be 1.90

***
So for "CC1=C(c2ccccc2)C(=O)N(C(C)(C)c2nc3cc(Cl)ccc3s2)C1" , the logged log10 MTD turned out to be 1.60

So for "CC1=C(c2ccccc2)C(=O)N(C(C)(C)c2csc3ccccc23)C1" , the logged log10 MTD turned out to be 1.00

So for "CC1=C(c2ccccc2)C(=O)N(C(C)(C)c2ncc(-c3ccc(Cl)cc3)s2)C1" , the logged log10 MTD turned out to be 1.90

So for "CCC1=C(c2ccccc2)C(=O)N(C(C)(C)c2nc3ccccc3s2)C1" , the logged log10 MTD turned out to be 1.60

So for "CC1=C(c2ccccc2)C(=O)N(C(C)(C)c2cc3ccccc3o2)C1" , the logged log10 MTD turned out to be 1.30

----------
- System: Oryza sativa
- ASSAY_SUMMARY: Phytotoxicity against two-leaf stage Oryza sativa cv. Nihonbare (rice) planted 3 cm depth measured after […]
- Type: organism-based
- MEASUREMENT_SETUP: in vivo
Recorded MTD values for a group of molecules are listed next.
Respond with a number, then the unit of measure.

Solved cases (5 shown):
So for "CC1=C(c2ccccc2)C(=O)N(C(C)(C)c2sc3ccccc3[n+]2[O-])C1" , the logged MTD turned out to be 80 g/acre

So for "CC1=C(c2ccc(F)cc2F)C(=O)N(C(C)(C)c2nc3ccccc3s2)C1" , the logged MTD turned out to be 10 g/acre

So for "CC1=C(c2ccc(Cl)cc2)C(=O)N(C(C)(C)c2nc3ccccc3s2)C1" , the logged MTD turned out to be 40 g/acre

So for "CC1=C(c2ccccc2)C(=O)N(C(C)(C)c2cc3ccccc3s2)C1" , the logged MTD turned out to be 20 g/acre

So for "CC1=C(c2ccccc2)C(=O)N(C(C)(C)c2nc3cc(C)ccc3s2)C1" , the logged MTD turned out to be 40 g/acre

***
So for "CC1=C(c2ccccc2Cl)C(=O)N(C(C)(C)c2nc3ccccc3s2)C1" , the logged MTD turned out to be 2.5 g/acre

So for "CC1=C(c2ccccc2Br)C(=O)N(C(C)(C)c2nc3ccccc3s2)C1" , the logged MTD turned out to be 5 g/acre

So for "COc1ccc(C2=C(C)CN(C(C)(C)c3nc4ccccc4s3)C2=O)cc1" , the logged MTD turned out to be 40 g/acre

So for "CC1=C(c2ccccc2O)C(=O)N(C(C)(C)c2nc3ccccc3s2)C1" , the logged MTD turned out to be 5 g/acre

So for "CC1=C(c2ccccc2)C(=O)N(C(C)(C)c2nc3cccnc3s2)C1" , the logged MTD turned out to be 0.313 g/acre
